# TESTED_SYSTEM: AMPA receptors
# METHOD_NOTES: AMPA receptor binding affinity (Honore et al.)
# SETTINGS: Table 2, cyclopentyl-fused analogs
Structures can show the parent of a compound that is named as a salt.
EXPERIMENTAL_READOUT: IC50 (µM)

CC(=O)N(C)C1Cc2c([N+](=O)[O-])cc3[nH]c(=O)c(=O)[nH]c3c2C1 (stereo not shown); 2.2
CC(=O)NC1Cc2c([N+](=O)[O-])c(Br)c3[nH]c(=O)c(=O)[nH]c3c2C1 (stereo not shown); 5.1
CNC1Cc2c([N+](=O)[O-])cc3[nH]c(=O)c(=O)[nH]c3c2C1 (stereo not shown); 1.2
O=C(NC1Cc2c([N+](=O)[O-])cc3[nH]c(=O)c(=O)[nH]c3c2C1)c1ccccc1 (stereo not shown); 0.11
O=C(NC1Cc2c([N+](=O)[O-])cc3[nH]c(=O)c(=O)[nH]c3c2C1)c1cccs1 (stereo not shown); 0.05
CC(=O)NC1Cc2c([N+](=O)[O-])cc3[nH]c(=O)c(=O)[nH]c3c2C1 (stereo not shown); 0.4
O=C(NC1Cc2c([N+](=O)[O-])cc3[nH]c(=O)c(=O)[nH]c3c2C1)C1CCNCC1 (stereo not shown) [Example 35, hydrochloride]; 0.12
O=C(Nc1ccccc1)C1Cc2c([N+](=O)[O-])cc3[nH]c(=O)c(=O)[nH]c3c2C1 (stereo not shown); 1.6
CC(=O)NC1Cc2ccc3[nH]c(=O)c(=O)[nH]c3c2C1 (stereo not shown); 25
O=C(NC1Cc2c([N+](=O)[O-])cc3[nH]c(=O)c(=O)[nH]c3c2C1)c1ccccn1 (stereo not shown); 0.56

A: O=C(NC1Cc2c([N+](=O)[O-])cc3[nH]c(=O)c(=O)[nH]c3c2C1)c1ccsc1 (stereo not shown)
B: CN(C)C1Cc2c([N+](=O)[O-])cc3[nH]c(=O)c(=O)[nH]c3c2C1 (stereo not shown)
Input: Higher IC50: A or B ? # reply format: chosen label
Output: B
(B: 0.91 µM, A: 0.1 µM)

a: CN(C(=O)C1Cc2c([N+](=O)[O-])cc3[nH]c(=O)c(=O)[nH]c3c2C1)c1ccccc1 (stereo not shown)
b: NC1Cc2c([N+](=O)[O-])cc3[nH]c(=O)c(=O)[nH]c3c2C1 (stereo not shown) [Example 38, hydrochloride]
Input: Higher IC50: a or b ? # reply format: chosen label
Output: b
(b: 2.6 µM, a: 0.42 µM)

###

# TESTED_SYSTEM: AMPA receptors
# METHOD_NOTES: AMPA receptor binding affinity (Honore et al.)
# SETTINGS: Table 2, cyclopentyl-fused analogs
EXPERIMENTAL_READOUT: IC50 (µM)

O=C(NC1Cc2c([N+](=O)[O-])cc3[nH]c(=O)c(=O)[nH]c3c2C1)C1CCCN1 (centres unmarked); 0.64
O=C(O)C1Cc2c([N+](=O)[O-])cc3[nH]c(=O)c(=O)[nH]c3c2C1 (centres unmarked); 0.42
CN(C(=O)c1ccccc1)C1Cc2c([N+](=O)[O-])cc3[nH]c(=O)c(=O)[nH]c3c2C1 (centres unmarked); 7.4

P: O=c1[nH]c2cc([N+](=O)[O-])c3c(c2[nH]c1=O)CC(N1CCCCC1)C3 (centres unmarked)
Q: O=C(NC1Cc2c([N+](=O)[O-])cc3[nH]c(=O)c(=O)[nH]c3c2C1)c1cccnc1 (centres unmarked)
Input: // compare: P vs Q , metric IC50, want the smaller # reply format: chosen label
Output: Q
(Q: 0.2 µM, P: 3.4 µM)

1: CN(C(=O)c1cccs1)C1Cc2c([N+](=O)[O-])cc3[nH]c(=O)c(=O)[nH]c3c2C1 (centres unmarked)
2: O=C(NC1Cc2c([N+](=O)[O-])cc3[nH]c(=O)c(=O)[nH]c3c2C1)c1cc2ccccc2s1 (centres unmarked)
Input: Higher IC50: 1 or 2 ? # reply format: chosen label
Output: 1
(1: 3.6 µM, 2: 1.3 µM)
